FYI, the data here is from the supplement of paper PMC8866396.

- Tested on: IL-6-GFP PC-9
- Test name: cell viability (CCK-8 OD) relative to DMSO control (fraction of control); higher = more viable cells
- Measurement setup: compound concentration: 10 uM; treatment time: 48 h
Doc: threshold 1 (exclusive). Items with cell viability beneath it return MET; others return NOT MET.

Here's an entry: COC1CC2CCC(C)C(O)(O2)C(=O)C(=O)N2CCCCC2C(=O)OC(C(C)CC2CCC(OC(=O)C(C)(CO)CO)C(OC)C2)CC(=O)C(C)/C=C(\C)C(O)C(OC)C(=O)C(C)CC(C)/C=C/C=C/C=C/1C (stereo unspecified) . Is its cell viability below 1? MET

And for Cl.O=C1NCC2(CCN(CCc3ccccc3)CC2)O1 [Fenspiride HCl] ? NOT MET

How about this molecule: `O=C(O)c1cc(N=Nc2ccc(S(=O)(=O)Nc3ccccn3)cc2)ccc1O` NOT MET

Also C#Cc1cccc(Nc2ncnc3cc(OCCOC)c(OCCOC)cc23)c1.Cl [Erlotinib HCl (OSI-744)] , if possible. MET

Again, but for CC(Cn1ccc(-c2ccc(C#N)c(Cl)c2)n1)NC(=O)c1cc(C(C)O)[nH]n1 (stereo unspecified) [Darolutamide (ODM-201)] MET

Continue with `CS(=O)(=O)CCNCc1ccc(-c2ccc3ncnc(Nc4ccc(OCc5cccc(F)c5)c(Cl)c4)c3c2)o1.Cc1ccc(S(=O)(=O)O)cc1.Cc1ccc(S(=O)(=O)O)cc1` MET
